TESTED ON: T1, integrin αvβ3 on β3-CHO cells (recombinant hamster αv/human β3 hybrid), P05106
T1 chain: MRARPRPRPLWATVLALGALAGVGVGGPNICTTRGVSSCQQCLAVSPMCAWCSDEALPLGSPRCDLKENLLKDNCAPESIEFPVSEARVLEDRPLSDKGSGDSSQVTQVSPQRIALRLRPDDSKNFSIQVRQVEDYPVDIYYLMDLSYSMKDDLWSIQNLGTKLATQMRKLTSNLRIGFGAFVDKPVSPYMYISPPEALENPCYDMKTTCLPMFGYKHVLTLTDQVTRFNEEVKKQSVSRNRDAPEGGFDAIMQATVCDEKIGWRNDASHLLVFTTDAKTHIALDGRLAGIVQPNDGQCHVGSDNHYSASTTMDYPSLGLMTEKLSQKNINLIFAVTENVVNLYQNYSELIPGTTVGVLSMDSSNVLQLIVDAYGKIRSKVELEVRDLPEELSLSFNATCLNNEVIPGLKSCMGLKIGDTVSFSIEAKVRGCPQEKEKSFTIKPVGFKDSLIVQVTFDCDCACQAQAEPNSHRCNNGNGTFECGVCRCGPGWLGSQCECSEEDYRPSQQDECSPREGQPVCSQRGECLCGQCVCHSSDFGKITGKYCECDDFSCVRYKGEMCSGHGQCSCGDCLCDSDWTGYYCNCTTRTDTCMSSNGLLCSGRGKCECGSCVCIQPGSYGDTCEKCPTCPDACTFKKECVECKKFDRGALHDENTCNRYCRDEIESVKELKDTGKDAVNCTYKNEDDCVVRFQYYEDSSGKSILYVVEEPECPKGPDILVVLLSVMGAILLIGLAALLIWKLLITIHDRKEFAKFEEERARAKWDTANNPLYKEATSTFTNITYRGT
PROTOCOL TEXT: cell adhesion assay (β3-CHO cells on coated IGF2)
CONDITION DETAILS: chain shown with the change; 10 µg/ml IGF2; Tyrode-HEPES buffer, 1 mM Mg2+; parent: est. 43; read off a plot
OBSERVABLE: response (% Adhesion)
Give the value, in units of % Adhesion, as a plain number.

**Query** Report response, nothing else, for this binder: WT IGF2 (insulin-like growth factor-2) R24E; R34E; R37E; R38E (protein) AYRPSETLCGGELVDTLQFVCGDEGFYFSRPASEVSEESRGIVEECCFRSCDLALLETYCATPAKSE
**Result** 15

**Query** Name the recorded response of the binder listed here: WT IGF2 (insulin-like growth factor-2) R30E; R37E; R38E (protein) AYRPSETLCGGELVDTLQFVCGDRGFYFSEPASRVSEESRGIVEECCFRSCDLALLETYCATPAKSE
**Result** 25

**Query** Answer with reported response of WT IGF2 (insulin-like growth factor-2) R34E; R37E; R38E (protein) AYRPSETLCGGELVDTLQFVCGDRGFYFSRPASEVSEESRGIVEECCFRSCDLALLETYCATPAKSE
**Result** 15

**Query** Let me know recorded response for WT IGF2 (insulin-like growth factor-2) R24E; R37E; R38E (protein) AYRPSETLCGGELVDTLQFVCGDEGFYFSRPASRVSEESRGIVEECCFRSCDLALLETYCATPAKSE , thanks.
**Result** 16
